Values compiled from the Immune Epitope Database (IEDB).

Molecular target: HLA-A*02:03
Test: IEDB peptide-MHC binding, purified MHC/competitive/radioactivity; filed as Kd, often an IC50 or EC50 that approximates it; bounds were set here for any values at or beyond the usual limits of such assays
Conditions: source organism: Dengue virus 3 Martinique/1243/1999
Recorded metric: Kd (nM)

seq_text=TLATGPITTL quantitative_readout=12

* * *

Molecular target: HLA-B*18:01
Experiment: IEDB peptide-MHC binding, purified MHC/competitive/fluorescence; filed as Kd, often an IC50 or EC50 that approximates it; bounds were set here for any values at or beyond the usual limits of such assays
Conditions: source organism: Orthohantavirus andesense
pKd: −log10 of the molar value.
Recorded metric: pKd

seq_text=RWASGVSEI result="≤ 4.70"
seq_text=STGKSIKFK result="≤ 4.70"

* * *

Biological target: HLA-B*46:01
Assay: IEDB peptide-MHC binding, purified MHC/competitive/fluorescence; filed as Kd, often an IC50 or EC50 that approximates it; bounds were set here for any values at or beyond the usual limits of such assays
Conditions: source organism: Influenza A virus (A/Memphis/1/1978(H1N1))
pKd: −log10 of the molar value.
Recorded metric: pKd

seq_text=AVDADDSHF result="≤ 4.70"

* * *

Molecular target: HLA-A*68:01
Experiment: IEDB peptide-MHC binding, purified MHC/competitive/radioactivity; filed as Kd, often an IC50 or EC50 that approximates it; bounds were set here for any values at or beyond the usual limits of such assays
Settings: source organism: Vaccinia virus WR
Classify: Criterion met when Kd is strictly less than 0.3 µM; Criterion not met when Kd is not.

seq_text=ISSVQLSNNK tested_target=HLA-A*68:01 label_class="Criterion not met"
seq_text=SIGNVTRLFY tested_target=HLA-A*68:01 label_class="Criterion not met"
seq_text=LILSNKLLY tested_target=HLA-A*68:01 label_class="Criterion not met"
seq_text=LIPLSEMVVK tested_target=HLA-A*68:01 label_class="Criterion not met"
seq_text=DLDKVYEILK tested_target=HLA-A*68:01 label_class="Criterion not met"
seq_text=SIILANERY tested_target=HLA-A*68:01 label_class="Criterion not met"
seq_text=RIGTAATKR tested_target=HLA-A*68:01 label_class="Criterion not met"
seq_text=YSFKLILAEY tested_target=HLA-A*68:01 label_class="Criterion not met"
seq_text=VVMAYVGIK tested_target=HLA-A*68:01 label_class="Criterion met"
seq_text=TSASEIKDR tested_target=HLA-A*68:01 label_class="Criterion met"
seq_text=KIKLILANK tested_target=HLA-A*68:01 label_class="Criterion not met"
seq_text=RIGTAATKRY tested_target=HLA-A*68:01 label_class="Criterion not met"
seq_text=NSNIIKNKK tested_target=HLA-A*68:01 label_class="Criterion met"
seq_text=QAELTSNCTR tested_target=HLA-A*68:01 label_class="Criterion met"
seq_text=AIEPSGNNY tested_target=HLA-A*68:01 label_class="Criterion not met"
seq_text=GQRCHFIKK tested_target=HLA-A*68:01 label_class="Criterion not met"
seq_text=FMTLVPVLEK tested_target=HLA-A*68:01 label_class="Criterion met"

* * *

Target: HLA-B*40:01
Experiment: IEDB peptide-MHC binding, purified MHC/direct/fluorescence; filed as Kd, often an IC50 or EC50 that approximates it; bounds were set here for any values at or beyond the usual limits of such assays
Details: source organism: Vibrio parahaemolyticus
pKd: −log10 of the molar value.
Recorded metric: pKd

seq_text=NSSYWRQGY tested_target=HLA-B*40:01 result="≤ 4.70"
seq_text=MSSAMSMMH tested_target=HLA-B*40:01 result="≤ 4.70"
